Recorded inhibition at 10 min, 10 µM for the following compounds
assayed-system: hOATP1B3 (Homo sapiens)
Sequence (Q9NPD5 1-702): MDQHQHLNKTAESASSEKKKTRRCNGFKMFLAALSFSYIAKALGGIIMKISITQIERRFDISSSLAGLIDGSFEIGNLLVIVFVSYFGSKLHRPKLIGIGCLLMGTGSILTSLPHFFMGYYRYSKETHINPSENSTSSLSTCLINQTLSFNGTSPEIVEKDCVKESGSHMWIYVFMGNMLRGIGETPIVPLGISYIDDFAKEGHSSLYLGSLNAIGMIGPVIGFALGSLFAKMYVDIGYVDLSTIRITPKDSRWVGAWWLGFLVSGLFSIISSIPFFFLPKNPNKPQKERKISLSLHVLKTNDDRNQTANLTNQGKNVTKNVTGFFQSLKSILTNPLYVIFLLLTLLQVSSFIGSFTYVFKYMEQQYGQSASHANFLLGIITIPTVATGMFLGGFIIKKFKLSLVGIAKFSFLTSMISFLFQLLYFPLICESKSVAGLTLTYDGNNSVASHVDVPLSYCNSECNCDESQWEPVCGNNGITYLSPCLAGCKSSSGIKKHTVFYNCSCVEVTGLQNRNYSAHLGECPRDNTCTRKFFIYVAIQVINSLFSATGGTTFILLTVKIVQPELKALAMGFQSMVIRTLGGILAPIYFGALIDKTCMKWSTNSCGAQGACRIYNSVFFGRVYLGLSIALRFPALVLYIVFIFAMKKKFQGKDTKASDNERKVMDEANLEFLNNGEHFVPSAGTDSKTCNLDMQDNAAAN
run-description: cis-inhibition of hOATP1B3-mediated TCA uptake in HEK293 cells
Format: cell-based
Set-up: expressed in transfected cells; host or cells: HEK-293, stably transfected
reported-conditions: human, HEK293 cells expressing hOATP1B3, probe 1 µM TCA (containing 0.01 µM [3H]-TCA), Inhibitory effect on hOATP1B3-mediated TCA uptake, 10 µM drug
Give the value in % but do not write % after it.

Field: example entries. Status: answers known.
Bench note: what inhibition at 10 min, 10 µM did CO[C@H]1/C=C/O[C@@]2(C)Oc3c(C)c(O)c4c(O)c(c(/C=N/N5CCN(C)CC5)c(O)c4c3C2=O)NC(=O)/C(C)=C\C=C\[C@H](C)[C@H](O)[C@@H](C)[C@@H](O)[C@@H](C)[C@H](OC(C)=O)[C@@H]1C [Rifampicin, rifampicin] show?
104

Would you kindly share the measured inhibition at 10 min, 10 µM for CC(C)c1nc(N(C)S(C)(=O)=O)nc(-c2ccc(F)cc2)c1/C=C/[C@@H](O)C[C@@H](O)CC(=O)O [Rosuvastatin, rosuvastatin] ?
24

Which inhibition at 10 min, 10 µM is reported for this compound? Clc1ccccc1C(c1ccccc1)(c1ccccc1)n1ccnc1 [Clotrimazole, clotrimazole]
-44

Let's switch to this compound now.
Can you look up the measured inhibition at 10 min, 10 µM of CCCCC1(CCCC)CN(c2ccccc2)c2cc(SC)c(OCC(=O)N[C@@H](C(=O)N[C@@H](CC)C(=O)O)c3ccc(O)cc3)cc2S(=O)(=O)N1 [Odevixibat, odevixibat] for me?
102

* * *

assayed-system: mOATP1B2 (Mus musculus)
Construct: The full-length mOATP1B2 and rOATP1B2 consist of 689 and 678 amino acids
Sequence (Q9JJL3 whole entry): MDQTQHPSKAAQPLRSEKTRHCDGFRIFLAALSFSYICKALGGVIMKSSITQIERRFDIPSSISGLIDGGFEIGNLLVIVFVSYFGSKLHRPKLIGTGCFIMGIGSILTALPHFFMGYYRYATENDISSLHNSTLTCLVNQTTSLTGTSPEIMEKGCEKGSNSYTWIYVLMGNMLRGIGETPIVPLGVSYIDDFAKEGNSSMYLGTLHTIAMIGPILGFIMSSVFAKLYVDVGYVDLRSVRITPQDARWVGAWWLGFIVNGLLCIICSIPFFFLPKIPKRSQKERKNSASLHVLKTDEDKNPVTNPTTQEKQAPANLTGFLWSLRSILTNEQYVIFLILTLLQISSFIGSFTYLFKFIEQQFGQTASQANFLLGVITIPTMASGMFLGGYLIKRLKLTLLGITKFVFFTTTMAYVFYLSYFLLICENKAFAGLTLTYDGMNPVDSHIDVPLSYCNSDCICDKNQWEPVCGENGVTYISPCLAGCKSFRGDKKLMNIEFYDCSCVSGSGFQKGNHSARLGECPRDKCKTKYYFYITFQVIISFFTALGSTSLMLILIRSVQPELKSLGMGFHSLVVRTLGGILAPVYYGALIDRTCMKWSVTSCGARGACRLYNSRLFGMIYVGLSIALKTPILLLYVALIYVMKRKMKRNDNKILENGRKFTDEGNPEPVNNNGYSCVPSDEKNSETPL
run-description: cis-inhibition of mOATP1B2-mediated E1S or TCA uptake in HEK293 cells
Type: cell-based
reported-conditions: HEK293, read-out: Inhibitory effect on mOATP1B2-mediated substrate uptake (summary over E1S and TCA), 10 µM drug, substrates E1S and TCA not separated
endpoint-name: inhibition at 10 µM

Sample answers from the record:
Could you share which inhibition at 10 µM value was measured for CO[C@H]1/C=C/O[C@@]2(C)Oc3c(C)c(O)c4c(O)c(c(/C=N/N5CCN(C)CC5)c(O)c4c3C2=O)NC(=O)/C(C)=C\C=C\[C@H](C)[C@H](O)[C@@H](C)[C@@H](O)[C@@H](C)[C@H](OC(C)=O)[C@@H]1C ?
≥ 50%

Which inhibition at 10 µM reading was recorded for the molecule CC(C)c1nc(N(C)S(C)(=O)=O)nc(-c2ccc(F)cc2)c1/C=C/[C@@H](O)C[C@@H](O)CC(=O)O ?
≥ 50%

// query inhibition at 10 µM value for entry CC(C)CN(C[C@@H](O)[C@H](Cc1ccccc1)NC(=O)O[C@H]1CCOC1)S(=O)(=O)c1ccc(N)cc1
< 50%

Look up inhibition at 10 µM: CCCCC1(CCCC)CN(c2ccccc2)c2cc(SC)c(OCC(=O)N[C@@H](C(=O)N[C@@H](CC)C(=O)O)c3ccc(O)cc3)cc2S(=O)(=O)N1
54 to 82%

---
Find the recorded inhibition at 10 µM belonging to CC(=O)N1CCN(c2ccc(OCC3COC(Cn4ccnc4)(c4ccc(Cl)cc4Cl)O3)cc2)CC1 (centres unmarked) and report it.
< 50%

* * *

assayed-system: mOATP1B2 (Mus musculus)
Construct: The full-length mOATP1B2 and rOATP1B2 consist of 689 and 678 amino acids
run-description: cis-inhibition of mOATP1B2-mediated E1S or TCA uptake in HEK293 cells
Assay type: cell-based
reported-conditions: HEK293, 10 µM drug, 1 µM [3H]-E1S, 1 min; read-out: Inhibitory effect on mOATP1B2-mediated E1S uptake
Each entry below lists one item and its recorded inhibition at 10 µM value.
The answer is to be given in %; state only the numeric part.

These solved cases illustrate the format of a correct answer.
State its inhibition at 10 µM on mOATP1B2 (Mus musculus): CO[C@H]1/C=C/O[C@@]2(C)Oc3c(C)c(O)c4c(O)c(c(/C=N/N5CCN(C)CC5)c(O)c4c3C2=O)NC(=O)/C(C)=C\C=C\[C@H](C)[C@H](O)[C@@H](C)[C@@H](O)[C@@H](C)[C@H](OC(C)=O)[C@@H]1C
44

Look up inhibition at 10 µM with mOATP1B2 (Mus musculus) for this molecule: CC(C)c1nc(N(C)S(C)(=O)=O)nc(-c2ccc(F)cc2)c1/C=C/[C@@H](O)C[C@@H](O)CC(=O)O
50

---
Short answer please: inhibition at 10 µM, mOATP1B2 (Mus musculus), entry Clc1ccccc1C(c1ccccc1)(c1ccccc1)n1ccnc1
6

Field: inhibition at 10 µM (mOATP1B2 (Mus musculus)). Entry: CCCCC1(CCCC)CN(c2ccccc2)c2cc(SC)c(OCC(=O)N[C@@H](C(=O)N[C@@H](CC)C(=O)O)c3ccc(O)cc3)cc2S(=O)(=O)N1
69

What reported inhibition at 10 µM corresponds to CCCc1nc(C(C)(C)O)c(C(=O)O)n1Cc1ccc(-c2ccccc2-c2nnn[nH]2)cc1 on mOATP1B2 (Mus musculus)?
18

* * *

Reported inhibition at 10 µM values are given for each entry in this list.
assayed-system: rOATP1B2 (Rattus norvegicus, UniProt Q9QZX8)
Construct: The full-length mOATP1B2 and rOATP1B2 consist of 689 and 678 amino acids
Sequence (Q9QZX8 whole entry): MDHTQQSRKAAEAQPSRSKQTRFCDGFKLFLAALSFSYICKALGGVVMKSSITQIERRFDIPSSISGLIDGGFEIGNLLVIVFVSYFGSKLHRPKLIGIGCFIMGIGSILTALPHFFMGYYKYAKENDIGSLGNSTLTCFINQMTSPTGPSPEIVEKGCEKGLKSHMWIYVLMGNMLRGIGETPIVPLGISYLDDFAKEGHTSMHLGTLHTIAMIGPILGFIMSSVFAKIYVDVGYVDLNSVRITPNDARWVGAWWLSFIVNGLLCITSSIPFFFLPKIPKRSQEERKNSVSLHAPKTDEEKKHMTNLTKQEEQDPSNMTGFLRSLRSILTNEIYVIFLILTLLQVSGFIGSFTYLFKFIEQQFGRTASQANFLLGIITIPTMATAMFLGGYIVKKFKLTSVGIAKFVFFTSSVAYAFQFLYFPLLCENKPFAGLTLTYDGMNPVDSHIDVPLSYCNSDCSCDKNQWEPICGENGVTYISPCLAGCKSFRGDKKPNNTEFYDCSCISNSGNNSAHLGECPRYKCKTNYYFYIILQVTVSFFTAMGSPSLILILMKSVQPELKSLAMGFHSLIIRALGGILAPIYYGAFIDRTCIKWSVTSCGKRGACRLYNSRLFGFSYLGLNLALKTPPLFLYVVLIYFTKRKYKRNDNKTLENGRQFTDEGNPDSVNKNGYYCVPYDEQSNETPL
run-description: cis-inhibition of rOATP1B2-mediated E1S or TCA uptake in HEK293 cells
Type: cell-based
reported-conditions: HEK293, read-out: Inhibitory effect on rOATP1B2-mediated TCA uptake, 10 µM drug, 1 µM [3H]-TCA, 1 min
Write it as a number; the unit % goes unstated.

Please review the following examples before continuing.
Can you look up the measured inhibition at 10 µM of CC(C)c1nc(CN(C)C(=O)N[C@H](C(=O)N[C@@H](Cc2ccccc2)C[C@H](O)[C@H](Cc2ccccc2)NC(=O)OCc2cncs2)C(C)C)cs1 for me?
78

Can you look up the measured inhibition at 10 µM of CC(C)c1nc(N(C)S(C)(=O)=O)nc(-c2ccc(F)cc2)c1/C=C/[C@@H](O)C[C@@H](O)CC(=O)O for me?
69

Further cases:
Suppose we examine the compound CCCCC1(CCCC)CN(c2ccccc2)c2cc(SC)c(OCC(=O)N[C@@H](C(=O)N[C@@H](CC)C(=O)O)c3ccc(O)cc3)cc2S(=O)(=O)N1 ; what inhibition at 10 µM value has been reported?
74

Param item = Clc1ccccc1C(c1ccccc1)(c1ccccc1)n1ccnc1 ; retrieve measured inhibition at 10 µM.
-10

I'd like to know its inhibition at 10 µM. The compound in question is CCCc1nc(C(C)(C)O)c(C(=O)O)n1Cc1ccc(-c2ccccc2-c2nnn[nH]2)cc1
32

* * *

Item-by-item account of inhibition at 10 µM
assayed-system: rOATP1B2 (Rattus norvegicus)
Construct: The full-length mOATP1B2 and rOATP1B2 consist of 689 and 678 amino acids
run-description: cis-inhibition of rOATP1B2-mediated E1S or TCA uptake in HEK293 cells
Format: cell-based
reported-conditions: HEK293, read-out: Inhibitory effect on rOATP1B2-mediated substrate uptake (summary over E1S and TCA), 10 µM drug, substrates E1S and TCA not separated

Name the reported inhibition at 10 µM value associated with the compound CC(C)c1nc(N(C)S(C)(=O)=O)nc(-c2ccc(F)cc2)c1/C=C/[C@@H](O)C[C@@H](O)CC(=O)O [Rosuvastatin, rosuvastatin]
≥ 50%

Further cases:
What does the record list as inhibition at 10 µM for CC(C)CN(C[C@@H](O)[C@H](Cc1ccccc1)NC(=O)O[C@H]1CCOC1)S(=O)(=O)c1ccc(N)cc1 [Amprenavir, amprenavir] ?
< 50%

I am curious: what inhibition at 10 µM value has been reported for CCCCC1(CCCC)CN(c2ccccc2)c2cc(SC)c(OCC(=O)N[C@@H](C(=O)N[C@@H](CC)C(=O)O)c3ccc(O)cc3)cc2S(=O)(=O)N1 [Odevixibat, odevixibat] ?
54 to 82%

Reported inhibition at 10 µM, compound CC(C)c1nc(CN(C)C(=O)N[C@H](C(=O)N[C@@H](Cc2ccccc2)C[C@H](O)[C@H](Cc2ccccc2)NC(=O)OCc2cncs2)C(C)C)cs1 [Ritonavir, ritonavir] : ____
> 70%

Return reported inhibition at 10 µM; argument: CC(=O)N1CCN(c2ccc(OCC3COC(Cn4ccnc4)(c4ccc(Cl)cc4Cl)O3)cc2)CC1 (centres unmarked) [Ketoconazole, ketoconazole]
< 50%

# credit: paper PMC12846068
